The molecules listed here are annotated with their melting point.

Solved entries:
Mol Smiles: Cn1c(=O)cc(CCN2CCC(c3c[nH]c4ccccc34)CC2)c2ccccc21
melting point: 79 to 81 °C
//
Mol Smiles: CNC(=S)Nc1ccccc1N1CCCC1
melting point: 125 to 126 °C
//
Mol Smiles: COC(=O)c1ccc(NC(=O)c2cc(C(C)C)c(C(C)C)s2)cc1
melting point: 180 to 182 °C
//
Mol Smiles: CCCn1nc(-c2ccc(O)c(Cl)c2)c2cccc(Cl)c21
melting point: 145 to 146 °C

Okay, now this molecule:
Which value of melting point has been reported for "O=[N+]([O-])c1[nH]c(-c2c(Cl)cc(C(F)(F)F)cc2Cl)nc1C(F)(F)F" in the records?
244 to 252 °C
